Measured IC50 values are reported for all entries that follow.
# Assayed System: Pin1 (Homo sapiens, UniProt Q13526)
# Sequence (Q13526 whole entry): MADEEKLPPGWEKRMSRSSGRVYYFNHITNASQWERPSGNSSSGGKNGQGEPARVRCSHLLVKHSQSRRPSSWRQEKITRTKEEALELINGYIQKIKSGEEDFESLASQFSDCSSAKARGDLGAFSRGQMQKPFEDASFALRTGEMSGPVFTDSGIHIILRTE
# Method: α-chymotrypsin protease-coupled Pin1 inhibition assay
# Format: biochemical
# Run Parameters: protease-coupled assay, substrate succinyl–Ala–Glu–cis-Pro–Phe–pNA, 4 °C, duplicate
Reply with just the number (in µM).

Field: example entries. Status: answers known.
1) CC(=O)N[C@@H](COP(=O)(O)O)CN1CCCCC1C(=O)NCCc1c[nH]c2ccccc12 (mixture of isomers) [Compound 4b, Ac–pSer–Ψ[CH2N]-(R/S)Pip ^a–tryptamine]    189
2) CC(OP(=O)(O)O)C(CN1CCCC1C(=O)NCCc1c[nH]c2ccccc12)NC(=O)OCC1c2ccccc2-c2ccccc21 (stereo not shown) [Compound 3, Fmoc–pThr–Ψ[CH2N]-Pro–tryptamine]    30
3) CC(=O)N[C@@H](COP(=O)(O)O)CN1CCCCC1C(=O)NCCc1c[nH]c2ccccc12 (mixture of isomers) [Compound 4a, Ac–pSer–Ψ[CH2N]-(R/S)Pip ^a–tryptamine]    16

Now for another entry.
Report the value of IC50 obtained on Pin1 (Homo sapiens, UniProt Q13526) for O=C(N[C@@H](COP(=O)(O)O)CN1CCC[C@H]1C(=O)NCCc1c[nH]c2ccccc12)OCC1c2ccccc2-c2ccccc21 [Compound 1, Fmoc–pSer–Ψ[CH2N]-Pro–tryptamine] .
6.3
